# Study System: Squalene synthase (Homo sapiens, UniProt P37268)
# Sequence (P37268 whole entry): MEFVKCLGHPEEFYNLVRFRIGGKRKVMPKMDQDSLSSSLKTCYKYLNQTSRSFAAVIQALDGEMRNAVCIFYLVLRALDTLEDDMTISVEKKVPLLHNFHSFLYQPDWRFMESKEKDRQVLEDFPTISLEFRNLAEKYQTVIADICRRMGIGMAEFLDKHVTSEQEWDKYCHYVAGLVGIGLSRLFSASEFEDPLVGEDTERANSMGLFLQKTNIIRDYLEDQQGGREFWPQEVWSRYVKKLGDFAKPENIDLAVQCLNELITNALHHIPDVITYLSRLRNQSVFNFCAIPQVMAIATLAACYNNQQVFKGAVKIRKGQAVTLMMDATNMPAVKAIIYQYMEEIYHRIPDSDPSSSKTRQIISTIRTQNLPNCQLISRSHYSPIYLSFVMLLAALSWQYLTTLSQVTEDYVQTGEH
Test Readout: IC50

1) COc1cccc(C(O)c2cc(Cl)ccc2N(CC(C)(C)C)C(=O)CCC(=O)N2CCC(C(=O)O)CC2)c1 (stereo not given) = > 600 nM
2) CCOC(=O)C1CCCN(C(=O)CCC(=O)N(CC(C)(C)C)c2ccc(Cl)cc2C(O)c2ccc(F)cc2Cl)C1 (stereo not given) = > 600 nM
3) CC(C)(C)CN(C(=O)CCC(=O)N1CCC(C(=O)O)CC1)c1ccc(Cl)cc1C(O)c1ccc(F)cc1Cl (stereo not given) = > 600 nM
4) CCOC(=O)C1CCN(C(=O)CCC(=O)N(CC(C)(C)C)c2ccc(Cl)cc2CO)CC1 = > 6000 nM
5) CC(C)(C)CN(C(=O)CCC(=O)N1CCC(C(=O)O)CC1)c1ccc(Cl)cc1C(O)c1cc(F)ccc1Cl (stereo not given) = > 600 nM
